Hey, just so you know, these numbers are from paper PMC8078777.

- Test: Caco-2 cell toxicity, MTT assay
- Assay type: cell-based, human
- Test settings: human, Caco-2, 12.5 μM, overnight, read-out: Caco-2 cell viability, of the untreated control

Sample smiles: O=C(Cc1c[nH]c2ccccc12)Nc1ccccc1CCOC(=O)Cc1c[nH]c2ccccc12
viability at 12.5 µM, %: 20

----------
- Target of assay: NLPPya (Pythium aphanidermatum, UniProt Q9SPD4)
- Sequence (Q9SPD4 18-234 limits assumed): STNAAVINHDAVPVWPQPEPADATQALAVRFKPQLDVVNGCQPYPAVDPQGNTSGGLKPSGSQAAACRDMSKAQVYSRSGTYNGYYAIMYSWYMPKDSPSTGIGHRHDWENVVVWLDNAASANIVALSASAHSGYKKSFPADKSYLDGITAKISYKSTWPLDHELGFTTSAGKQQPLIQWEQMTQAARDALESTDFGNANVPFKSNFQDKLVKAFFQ
- Test: STD-NMR binding to NLPPya
- Test settings: STD-NMR titration, 8 μM NLPPya, 25°C

Sample smiles: COc1ccc(Nc2ccccc2C(=O)O)cc1
Kd, µM: 150

----------
- Test: Solubility in SPR running buffer
- Type: physicochemical
- Test settings: pH 5.8, aqueous with cosolvent or surfactant or cyclodextrin, kinetic from dmso stock; SPR running buffer containing 5% DMSO; read-out: solubility limit

Compound: O=C(Cc1c[nH]c2ccccc12)Nc1ccccc1CCOC(=O)Cc1c[nH]c2ccccc12 [7C8]
solubility: ~180 µM

----------
- Target of assay: NLPPya (Pythium aphanidermatum, UniProt Q9SPD4)
- Test: Surface plasmon resonance binding to immobilized NLPPya
- Test settings: SPR, steady-state affinity model, 50 mM MES, 150 mM NaCl, 5% DMSO, pH 5.8
- Method: Biacore T100 equipped with the Series S Sensor chip CM5 (GE Healthcare) was used to assess the binding of compounds to NLPPya and NLPPp. The proteins were covalently immobilized to the chip using amine coupling. […] Each compound was injected for 1 min at a flow rate of 30 μL/min, and dissociation was monitored for another minute. […] The samples were injected for 1 min at a flow rate of 30 μL/min, and dissociation was monitored for another minute. […]
Readout name: Kd (µM)

Sample smiles: COc1ccc(Nc2ccccc2C(=O)O)cc1
Measurement: 131
